The values you see were collected from patent US20240140986A1.

# Test system: IFNγ-induced NO production in RAW 264.7 cells
# assay-text: Nitric Oxide Suppression Assay (IFNγ-induced NO, Griess nitrite readout)
# Assay type: cell-based, mouse
# setup-conditions: Mus musculus, RAW264.7, Table 2; RAW 264.7 cells, 2 h pretreatment, 20 ng/mL interferon gamma 24 h; read-out: Avg NO IC50 (nM) (Mean ± SD)
1.0 if IC50 is below 5 nM. 0.0 if not; exact matches included in 0.0.

Problem: Item `COC(=O)N1CCC(=O)N1C[C@]12CC[C@@H](C)[C@H](C)[C@H]1[C@H]1C(=O)C=C3[C@@]4(C)C=C(C#N)C(=O)C(C)(C)[C@@H]4CC[C@@]3(C)[C@]1(C)CC2` : IC50 beneath 5 nM, strictly?
Solution: 1.0

Problem: What about `C[C@@H]1[C@H]2[C@H]3C(=O)C=C4[C@@]5(C)C=C(C#N)C(=O)C(C)(C)[C@@H]5CC[C@@]4(C)[C@]3(C)CC[C@@]2(CNC(=O)C(C)(F)F)CC[C@H]1C` ?
Solution: 1.0

Problem: What about `Cc1noc([C@]23CC[C@@H](C)[C@H](C)[C@H]2[C@H]2C(=O)C=C4[C@@]5(C)C=C(C#N)C(=O)C(C)(C)[C@@H]5CC[C@@]4(C)[C@]2(C)CC3)n1` ?
Solution: 1.0

Problem: What about `C[C@@H]1[C@H]2[C@H]3C(=O)C=C4[C@@]5(C)C=C(C#N)C(=O)C(C)(C)[C@@H]5CC[C@@]4(C)[C@]3(C)CC[C@@]2(CN2C(=O)CCC2=O)CC[C@H]1C` ?
Solution: 1.0

Problem: What about `C[C@@H]1[C@H]2[C@H]3C(=O)C=C4[C@@]5(C)C=C(C#N)C(=O)C(C)(C)[C@@H]5CC[C@@]4(C)[C@]3(C)CC[C@@]2(Cn2cncn2)CC[C@H]1C` ?
Solution: 0.0

Problem: What about C[C@@H]1[C@H]2[C@H]3C(=O)C=C4[C@@]5(C)C6O[C@@]6(C#N)C(=O)C(C)(C)[C@@H]5CC[C@@]4(C)[C@]3(C)CC[C@@]2(CNC(=O)C2CC2)CC[C@H]1C (stereo partly shown) ?
Solution: 0.0

Problem: What about `C[C@@H]1[C@H]2[C@H]3C(=O)C=C4[C@@]5(C)C=C(C#N)C(=O)C(C)(C)[C@@H]5CC[C@@]4(C)[C@]3(C)CC[C@@]2(CN2CCN(C)C2=O)CC[C@H]1C` ?
Solution: 0.0

Problem: What about `COCCc1noc([C@]23CC[C@@H](C)[C@H](C)[C@H]2[C@H]2C(=O)C=C4[C@@]5(C)C=C(C#N)C(=O)C(C)(C)[C@@H]5CC[C@@]4(C)[C@]2(C)CC3)n1` ?
Solution: 1.0

Problem: What about `C[C@@H]1[C@H]2[C@H]3C(=O)C=C4[C@@]5(C)C=C(C#N)C(=O)C(C)(C)[C@@H]5CC[C@@]4(C)[C@]3(C)CC[C@@]2(c2nc(C3CC3)no2)CC[C@H]1C` ?
Solution: 0.0

Problem: What about `CC(=N)NOC(=O)[C@]12CC[C@@H](C)[C@H](C)[C@H]1[C@H]1C(=O)C=C3[C@@]4(C)C=C(C#N)C(=O)C(C)(C)[C@@H]4CC[C@@]3(C)[C@]1(C)CC2` ?
Solution: 0.0

Problem: What about `C[C@@H]1[C@H]2[C@H]3C(=O)C=C4[C@@]5(C)C=C(C#N)C(=O)C(C)(C)[C@@H]5CC[C@@]4(C)[C@]3(C)CC[C@@]2(CNCCO)CC[C@H]1C` ?
Solution: 0.0

Problem: What about `CO/N=C/[C@]12CC[C@@H](C)[C@H](C)[C@H]1[C@H]1C(=O)C=C3[C@@]4(C)C=C(C#N)C(=O)C(C)(C)[C@@H]4CC[C@@]3(C)[C@]1(C)CC2` ?
Solution: 0.0

Problem: What about `C[C@@H]1[C@H]2[C@H]3C(=O)C=C4[C@@]5(C)C=C(C#N)C(=O)C(C)(C)[C@@H]5CC[C@@]4(C)[C@]3(C)CC[C@@]2(CN2NCCC2=O)CC[C@H]1C` ?
Solution: 0.0

Problem: What about `CCc1noc([C@]23CC[C@@H](C)[C@H](C)[C@H]2[C@H]2C(=O)C=C4[C@@]5(C)C=C(C#N)C(=O)C(C)(C)[C@@H]5CC[C@@]4(C)[C@]2(C)CC3)n1` ?
Solution: 0.0

Problem: What about `Cc1nc([C@]23CC[C@@H](C)[C@H](C)[C@H]2[C@H]2C(=O)C=C4[C@@]5(C)C=C(C#N)C(=O)C(C)(C)[C@@H]5CC[C@@]4(C)[C@]2(C)CC3)no1` ?
Solution: 0.0

Problem: What about `C[C@@H]1[C@H]2[C@H]3C(=O)C=C4[C@@]5(C)C=C(C#N)C(=O)C(C)(C)[C@@H]5CC[C@@]4(C)[C@]3(C)CC[C@@]2(CCC(=O)NC2CC2)CC[C@H]1C` ?
Solution: 1.0

Problem: What about `C[C@@H]1[C@H]2[C@H]3C(=O)C=C4[C@@]5(C)C=C(C#N)C(=O)C(C)(C)[C@@H]5CC[C@@]4(C)[C@]3(C)CC[C@@]2(Cn2cccn2)CC[C@H]1C` ?
Solution: 0.0

Problem: What about `CCS(=O)(=O)NC[C@]12CC[C@@H](C)[C@H](C)[C@H]1[C@H]1C(=O)C=C3[C@@]4(C)C=C(C#N)C(=O)C(C)(C)[C@@H]4CC[C@@]3(C)[C@]1(C)CC2` ?
Solution: 0.0

Problem: What about `C[C@@H]1[C@H]2[C@H]3C(=O)C[C@@H]4[C@@]5(C)C=C(C#N)C(=O)C(C)(C)[C@@H]5CC[C@@]4(C)[C@]3(C)CC[C@@]2(CCC(=O)N2CCC2)CC[C@H]1C` ?
Solution: 0.0
